Below: a set of entries, each annotated with reported koff.
Biological target: T1, sIL-6R (soluble IL-6 receptor; SBH Sciences) (human, UniProt P08887 20-365)
T1 construct: also called human IL-6R
T1 sequence: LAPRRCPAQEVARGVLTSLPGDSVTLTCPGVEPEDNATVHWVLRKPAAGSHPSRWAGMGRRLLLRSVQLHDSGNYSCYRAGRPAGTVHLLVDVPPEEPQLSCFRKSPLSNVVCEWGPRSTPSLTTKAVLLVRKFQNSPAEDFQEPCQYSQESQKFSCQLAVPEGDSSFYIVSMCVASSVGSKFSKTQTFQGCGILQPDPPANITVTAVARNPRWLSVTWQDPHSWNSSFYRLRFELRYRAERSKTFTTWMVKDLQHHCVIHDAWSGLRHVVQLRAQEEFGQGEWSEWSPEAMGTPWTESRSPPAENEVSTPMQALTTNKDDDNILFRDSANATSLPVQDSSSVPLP
Test: SPR (BIAcore 3000), antibody on chip, sIL-6R analyte, 25 C
Supply the numeric figure in s⁻¹, leaving out any unit text.

binder	koff [s⁻¹]
205# (antibody, human IgG1, kappa, V domains shown) VH: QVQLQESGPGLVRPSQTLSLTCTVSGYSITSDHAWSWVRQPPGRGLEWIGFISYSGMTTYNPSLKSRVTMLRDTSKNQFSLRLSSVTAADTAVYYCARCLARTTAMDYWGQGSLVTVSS VL: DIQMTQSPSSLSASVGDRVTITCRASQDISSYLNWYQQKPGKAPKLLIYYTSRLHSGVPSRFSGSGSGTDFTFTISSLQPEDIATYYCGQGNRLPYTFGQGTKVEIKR	2.14e-06
201# (antibody, human IgG1, kappa, V domains shown, also called Sample # 201) VH: QVQLQESGPGLVRPSQTLSLTCTVSGYSITSDHAWSWVRQPPGRGLEWIGFISYSGMTTYNPSLKSRVTMLRDTSKNQFSLRLSSVTAADTAVYYCARCLARITAIDFWGQGSLVTVSS VL: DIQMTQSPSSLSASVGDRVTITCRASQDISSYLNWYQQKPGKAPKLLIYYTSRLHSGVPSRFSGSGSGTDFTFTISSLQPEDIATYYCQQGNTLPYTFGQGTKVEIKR	1.47e-05
64# (antibody, human IgG1, kappa, V domains shown, also called Sample # 64) VH: QVQLQESGPGLVRPSQTLSLTCTVSGYSITSDHAWSWVRQPPGRGLEWIGFISYSGMTTYNPSLKSRVTMLRDTSKNQFSLRLSSVTAADTAVYYCARCLARMTAMDYWGQGSLVTVSS VL: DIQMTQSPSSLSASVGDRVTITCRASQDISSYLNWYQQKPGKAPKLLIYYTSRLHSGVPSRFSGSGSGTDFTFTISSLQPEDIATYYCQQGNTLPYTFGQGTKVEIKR	2.85e-05

Consider the binder 66# (antibody, human IgG1, kappa, V domains shown, also called Sample # 66) VH: QVQLQESGPGLVRPSQTLSLTCTVSGYSITSDHAWSWVRQPPGRGLEWIGFISYSGMTTYNPSLKSRVTMLRDTSKNQFSLRLSSVTAADTAVYYCARSLARMTAMDYWGQGSLVTVSS VL: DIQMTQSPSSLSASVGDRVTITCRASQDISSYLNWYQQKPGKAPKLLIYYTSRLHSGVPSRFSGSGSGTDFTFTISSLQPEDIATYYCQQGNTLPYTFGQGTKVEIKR and give its measured koff. 3.38e-05

Same read-out for 62# (antibody, human IgG1, kappa, V domains shown, also called Sample # 62) VH: QVQLQESGPGLVRPSQTLSLTCTVSGYSITSDHAWSWVRQPPGRGLEWIGFISYSGMTTYNPSLKSRVTMLRDTSKNQFSLRLSSVTAADTAVYYCARCLARATAMDYWGQGSLVTVSS VL: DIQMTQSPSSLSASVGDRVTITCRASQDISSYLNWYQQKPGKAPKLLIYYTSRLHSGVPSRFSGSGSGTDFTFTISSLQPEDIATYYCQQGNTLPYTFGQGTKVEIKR ? 6.61e-06

Taken from patent US20190315854A1.
